glycan array binding signal (z-score) reference
- system_name: GalNAc(b1-4)GlcNAc(b1-2)Man(a1-3)[GalNAc(b1-4)GlcNAc(b1-2)Man(a1-6)]Man(b1-4)GlcNAc(b1-4)GlcNAc
- method: glycan array binding signal (z-score within array); higher = stronger binding
- conditions: glycan notation: IUPAC condensed, linker removed
Shown is part of a subset that was picked to be rich in the strongest signals.
Please state the value as a number alone, without comment.

>  <binder>
CLECb-Precomplexed (Mus musculus), P43025 (protein) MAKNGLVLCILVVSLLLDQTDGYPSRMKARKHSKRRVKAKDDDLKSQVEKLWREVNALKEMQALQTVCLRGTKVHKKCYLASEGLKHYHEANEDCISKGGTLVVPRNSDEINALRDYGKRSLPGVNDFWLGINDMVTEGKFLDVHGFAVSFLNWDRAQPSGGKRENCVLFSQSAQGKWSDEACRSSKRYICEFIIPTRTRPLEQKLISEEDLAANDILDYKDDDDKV

>  <assay_metric>
glycan array binding signal (z-score)

>  <experimental_value>
0.242

$$$$
>  <binder>
Protectin (Homo sapiens), P13987 (protein) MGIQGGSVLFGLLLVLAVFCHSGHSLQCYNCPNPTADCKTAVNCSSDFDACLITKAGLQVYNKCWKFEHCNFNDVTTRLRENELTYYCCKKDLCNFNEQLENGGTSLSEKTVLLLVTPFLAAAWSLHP

>  <assay_metric>
glycan array binding signal (z-score)

>  <experimental_value>
2.58

$$$$

Turning now to a further binder:
In: Query: glycan array binding signal (z-score); subject: FGF1 (Homo sapiens), P05230 (protein) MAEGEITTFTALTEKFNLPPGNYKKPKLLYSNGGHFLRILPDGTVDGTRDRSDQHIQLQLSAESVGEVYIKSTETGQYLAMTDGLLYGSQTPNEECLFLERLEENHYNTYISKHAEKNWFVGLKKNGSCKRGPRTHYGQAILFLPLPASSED
Out: 6.98
